- Tested target: Cytochrome P450 2E1 (Homo sapiens, UniProt P05181); also: in other assays of this panel Not Active means under 50% inhibition at 10 µM
- Sequence (P05181 whole entry): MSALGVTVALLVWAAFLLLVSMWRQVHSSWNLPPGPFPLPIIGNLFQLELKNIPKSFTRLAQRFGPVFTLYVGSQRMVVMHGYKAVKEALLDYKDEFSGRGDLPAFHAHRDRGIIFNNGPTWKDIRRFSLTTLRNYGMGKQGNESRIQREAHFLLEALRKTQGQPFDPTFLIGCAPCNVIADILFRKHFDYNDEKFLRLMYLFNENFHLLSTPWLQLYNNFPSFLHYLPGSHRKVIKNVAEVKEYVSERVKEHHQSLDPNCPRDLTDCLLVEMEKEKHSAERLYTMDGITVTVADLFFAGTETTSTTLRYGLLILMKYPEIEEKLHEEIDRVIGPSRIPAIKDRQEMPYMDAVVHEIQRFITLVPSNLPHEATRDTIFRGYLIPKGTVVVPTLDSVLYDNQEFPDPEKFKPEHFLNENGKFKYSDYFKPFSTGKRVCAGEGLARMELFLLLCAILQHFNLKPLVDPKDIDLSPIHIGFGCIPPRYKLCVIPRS
- Experimental parameters: bti-tn-5b1-4
Measured attribute: Ki

Example entries and their recorded answers appear below.
Molecule	Measurement
O=c1[nH]c2ccccc2c2ccccc12	Not Active
Oc1ncnc2[nH]ncc12	Not Active
OC[C@H]1OC2C3[C@@H](CO)OC(O[C@H]4[C@H](O)[C@@H](O)[C@@H](O[C@H]5[C@H](O)[C@@H](O)[C@@H](O[C@H]6[C@H](O)[C@@H](O)[C@@H](O[C@H]7[C@H](O)[C@@H](O)[C@@H](O[C@H]8[C@H](O)[C@@H](O)[C@@H](O[C@H]9[C@H](O)[C@@H](O)C(OC1[C@H](O)[C@H]2O)O[C@@H]9CO)O[C@@H]8CO)O[C@@H]7CO)O[C@@H]6CO)O[C@@H]5CO)O[C@@H]4CO)[C@H](O)[C@H]3O	Not Active
CCN1C[C@]2(COC)[C@H](O)C[C@H](OC)[C@@]34[C@@H]5C[C@@]6(O)[C@H](OC(=O)c7ccccc7)[C@@H]5[C@@](OC(C)=O)([C@@H]([C@H](OC)[C@H]23)[C@@H]14)[C@@H](O)[C@@H]6OC	Not Active

Any idea what Ki was measured for Nc1ccc(C(=O)O)c(O)c1 ?
Not Active

Now consider CC[C@@]1(O)C(=O)OCc2c1cc1n(c2=O)Cc2cc3c(CN(C)C)c(O)ccc3nc2-1 .
Not Active

Follow-up entry: O=C(c1ccccc1)c1ccc2n1CCC2C(=O)O (stereo not given)
Not Active

Another molecule: C[N+](C)(C)CCOP(=O)([O-])OC[C@H](O)CO
Not Active

Please answer likewise for O=C(Nc1ccc(Cl)c(Cl)c1)c1cc(Cl)cc(Cl)c1O [3,3',4',5-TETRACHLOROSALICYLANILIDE]
Not Active

How about this molecule: Nc1nc(N)c2nc(-c3ccccc3)c(N)nc2n1
Not Active

---

- Tested target: Sodium-dependent dopamine transporter (Homo sapiens)
- Sequence (Q01959 whole entry): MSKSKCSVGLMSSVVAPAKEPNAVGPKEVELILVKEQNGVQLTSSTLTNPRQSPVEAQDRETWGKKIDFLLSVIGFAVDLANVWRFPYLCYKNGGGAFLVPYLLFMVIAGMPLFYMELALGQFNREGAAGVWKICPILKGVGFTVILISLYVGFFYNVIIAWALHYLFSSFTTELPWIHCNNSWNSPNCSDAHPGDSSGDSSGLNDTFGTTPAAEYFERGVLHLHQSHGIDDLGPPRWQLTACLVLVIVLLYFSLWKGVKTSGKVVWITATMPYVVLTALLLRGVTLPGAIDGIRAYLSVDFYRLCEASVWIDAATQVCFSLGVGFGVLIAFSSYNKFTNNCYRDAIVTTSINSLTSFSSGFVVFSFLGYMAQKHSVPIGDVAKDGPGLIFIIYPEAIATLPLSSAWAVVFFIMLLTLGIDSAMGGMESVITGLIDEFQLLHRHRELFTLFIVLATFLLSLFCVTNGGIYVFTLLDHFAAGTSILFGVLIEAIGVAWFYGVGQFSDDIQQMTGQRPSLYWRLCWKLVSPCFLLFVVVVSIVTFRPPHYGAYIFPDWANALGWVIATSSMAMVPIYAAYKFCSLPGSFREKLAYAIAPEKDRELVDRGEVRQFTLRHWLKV
- Procedure details: DRUGMATRIX: Dopamine Transporter radioligand binding (ligand: [125I] RTI-55)
- Type: cell membranes, CHO-K1, Membrane
- Experimental parameters: cho-k1; Not Active = under 50% inhibition at 10 µM
Measured attribute: IC50

Worked set:
Compound	Tested target	IC50
Nc1nc(N)c2nc(CNc3ccc(C(=O)N[C@@H](CCC(=O)O)C(=O)O)cc3)cnc2n1 [AMINOPTERIN]	Sodium-dependent dopamine transporter (Homo sapiens)	Not Active
O=C(NCCN1CCOCC1)c1ccc(Cl)cc1 [MOCLOBEMIDE]	Sodium-dependent dopamine transporter (Homo sapiens)	Not Active
COc1cc([C@@H]2c3cc4c(cc3[C@H](O)[C@H]3COC(=O)[C@H]23)OCO4)cc(OC)c1OC [PODOFILOX]	Sodium-dependent dopamine transporter (Homo sapiens)	Not Active
NS(=O)(=O)c1cc(C(=O)O)c(NCc2ccco2)cc1Cl [FUROSEMIDE]	Sodium-dependent dopamine transporter (Homo sapiens)	Not Active
Nc1ccc(Cc2ccc(N)cc2)cc1	Sodium-dependent dopamine transporter (Homo sapiens)	Not Active
CC[C@H]1OC(=O)[C@H](C)[C@@H](O[C@H]2C[C@@](C)(OC)[C@@H](O)[C@H](C)O2)[C@H](C)[C@@H](O[C@@H]2O[C@H](C)C[C@H](N(C)C)[C@H]2O)[C@](C)(O)C[C@@H](C)C(=O)[C@H](C)[C@@H](O)[C@]1(C)O [ERYTHROMYCIN]	Sodium-dependent dopamine transporter (Homo sapiens)	Not Active

Entry under review: C1CCN2C[C@@H]3C[C@@H](CN4CCCC[C@@H]34)[C@H]2C1 [SPARTEINE] . Reported IC50?
Not Active

Another: O=c1[nH]c2ccccc2c2ccccc12
Not Active

Another compound to check: O=C(O)CCc1nc(-c2ccccc2)c(-c2ccccc2)o1 [OXAPROZIN]
Not Active

Note, next up: CO[C@@]12[C@H](COC(N)=O)C3=C(C(=O)C(C)=C(N)C3=O)N1C[C@@H]1N[C@@H]12 [MITOMYCIN]
Not Active
